Target: T1, CD19 (UniProt P15391 20-556, limits assumed)
T1 sequence (looked up): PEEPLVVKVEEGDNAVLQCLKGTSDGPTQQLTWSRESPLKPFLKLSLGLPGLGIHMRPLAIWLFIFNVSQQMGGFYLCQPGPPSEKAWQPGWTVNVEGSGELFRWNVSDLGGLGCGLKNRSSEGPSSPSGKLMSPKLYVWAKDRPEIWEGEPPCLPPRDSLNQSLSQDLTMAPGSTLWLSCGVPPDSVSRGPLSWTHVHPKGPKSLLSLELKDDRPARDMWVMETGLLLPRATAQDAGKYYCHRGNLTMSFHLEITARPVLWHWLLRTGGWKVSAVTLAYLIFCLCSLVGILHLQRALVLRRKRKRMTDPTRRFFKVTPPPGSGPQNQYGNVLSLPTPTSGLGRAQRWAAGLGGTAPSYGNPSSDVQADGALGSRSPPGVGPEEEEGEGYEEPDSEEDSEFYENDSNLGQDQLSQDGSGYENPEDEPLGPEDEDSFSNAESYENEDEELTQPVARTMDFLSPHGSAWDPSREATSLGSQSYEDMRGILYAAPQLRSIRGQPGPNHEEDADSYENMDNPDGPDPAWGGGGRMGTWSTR
Experiment: cell-based or functional assay
Measured EC50 of cytotoxicity (LDH), sCAR-T cells + switch vs CD19+ RS4;11, assay DTR-5-15 (PBMC) by item
Be sure to follow the number with its unit.

hFMCL2b/H4c(Q1E-V20L)-WT (antibody, V domains shown) VH: EVQLQESGPGLVKPSETLSLTCTVSGVSLPDYGVSWIRQPPGKGLEWLGVIWGSETTYYNSALKSRLTISKDNSKNQVSLKMSSLTAADTAVYYCAKHYYYGGSYAMDYWGQGTLVTVSS VL: DIQMTQSPSSLSASVGDRVTITCRASQDISKYLNWYQQKPGKAVKLLIYHTSRLHSGVPSRFSGSGSGTDYTLTISSLQPEDFATYFCQQGATLPYTFGQGTKLEIK = 7.52 pM

(Q) Could you share which EC50 of cytotoxicity (LDH), sCAR-T cells + switch vs CD19+ RS4;11, assay DTR-5-15 (PBMC) value was measured for hFMCL2b(V44L)/H4c(Q1E)-WT (antibody, V domains shown) VH: EVQLQESGPGLVKPSETLSVTCTVSGVSLPDYGVSWIRQPPGKGLEWLGVIWGSETTYYNSALKSRLTISKDNSKNQVSLKMSSLTAADTAVYYCAKHYYYGGSYAMDYWGQGTLVTVSS VL: DIQMTQSPSSLSASVGDRVTITCRASQDISKYLNWYQQKPGKALKLLIYHTSRLHSGVPSRFSGSGSGTDYTLTISSLQPEDFATYFCQQGATLPYTFGQGTKLEIK ?
(A) 2.04 pM

Values were extracted from patent US20190359697A1.
